assay.metric: log10 of IC50 (log10 of the value in nM)
Recall that a logarithmic scale is used here: each number is log10 of IC50 in nM.

Query: Lab request: please report log10 of IC50 under test system hERG channel (Homo sapiens) for COc1cccc(CCN2CCCN(CCc3cccc(OC)c3)CC2)c1 [Compound 67]
Response: 3.05

Query: Lab request: please report log10 of IC50 under test system hERG channel (Homo sapiens) for COc1ccc(CCN2CCC(CCc3ccc(F)cc3F)CC2)cc1 [Compound 33]
Response: 3.03

Query: Lab request: please report log10 of IC50 under test system hERG channel (Homo sapiens) for COc1cccc(CCN2CCC(CCc3ccc(F)cc3F)CC2)c1 [Compound 32]
Response: 2.51

Query: Lab request: please report log10 of IC50 under test system hERG channel (Homo sapiens) for Fc1ccc(CCC2CCN(CCc3ccccc3)CC2)c(F)c1 [Compound 30]
Response: 2.74

Query: Lab request: please report log10 of IC50 under test system hERG channel (Homo sapiens) for COc1ccc(CCC2CCN(CCc3ccc(F)cc3)CC2)cc1 [Compound 25]
Response: 3.15

Query: Lab request: please report log10 of IC50 under test system hERG channel (Homo sapiens) for COc1ccc(CCN2CCC(CCc3ccccc3)CC2)cc1OC [Compound 3]
Response: 2.60

Query: Lab request: please report log10 of IC50 under test system hERG channel (Homo sapiens) for Clc1ccccc1CCN1CCN(CCc2ccccc2)CC1 [Compound 63]
Response: 3.45

Query: Lab request: please report log10 of IC50 under test system hERG channel (Homo sapiens) for COc1cccc(CCC2CCN(CCc3ccc(F)cc3)CC2)c1 [Compound 19]
Response: 2.61

Query: Lab request: please report log10 of IC50 under test system hERG channel (Homo sapiens) for COc1cccc(CCN2CCC(Cc3ccccc3)CC2)c1 [Compound 6]
Response: 2.65

Query: Lab request: please report log10 of IC50 under test system hERG channel (Homo sapiens) for COc1cc(OC)c(OC)cc1CCC1CCN(CCc2ccccc2)CC1 [Compound 9]
Response: 3.91

Query: Lab request: please report log10 of IC50 under test system hERG channel (Homo sapiens) for c1ccc(CCN2CCN(CCc3ccccc3)CC2)cc1 [Compound 54, 1,4-diphenethylpiperazine]
Response: 3.53

Query: Lab request: please report log10 of IC50 under test system hERG channel (Homo sapiens) for COc1ccccc1CCN1CCC(CCc2ccccc2)CC1 [Compound 1]
Response: 2.73

Query: Lab request: please report log10 of IC50 under test system hERG channel (Homo sapiens) for COc1cccc(CCN2CCC(CCc3cc(F)cc(F)c3)CC2)c1 [Compound 44]
Response: 2.68

Query: Lab request: please report log10 of IC50 under test system hERG channel (Homo sapiens) for Fc1ccc(CCN2CCC(CCc3cc(F)cc(F)c3)CC2)cc1 [Compound 47]
Response: 2.64

Query: Lab request: please report log10 of IC50 under test system hERG channel (Homo sapiens) for COc1ccc(CCN2CCC(CCc3ccc(OC)cc3F)CC2)cc1 [Compound 39]
Response: 2.48

Query: Lab request: please report log10 of IC50 under test system hERG channel (Homo sapiens) for COc1ccc(CCC2CCN(CCc3ccccc3OC)CC2)cc1 [Compound 21]
Response: 2.51

Query: Lab request: please report log10 of IC50 under test system hERG channel (Homo sapiens) for COc1ccccc1CN1CCC(CCc2ccccc2)CC1 [Compound 49]
Response: 2.75

Query: Lab request: please report log10 of IC50 under test system hERG channel (Homo sapiens) for COc1cccc(CCC2CCN(CCc3ccccc3)CC2)c1 [Compound 14]
Response: 2.80

Query: Lab request: please report log10 of IC50 under test system hERG channel (Homo sapiens) for COc1cccc(CCN2CCC(CCc3ccccc3OC)CC2)c1 [Compound 26]
Response: 2.78

Query: Lab request: please report log10 of IC50 under test system hERG channel (Homo sapiens) for COc1ccccc1CCC1CCN(CCc2ccccc2Cl)CC1 [Compound 28]
Response: 3.08

Query: Lab request: please report log10 of IC50 under test system hERG channel (Homo sapiens) for COc1ccc(CCC2CCN(CCc3ccccc3Cl)CC2)cc1 [Compound 24]
Response: 3.32

Query: Lab request: please report log10 of IC50 under test system hERG channel (Homo sapiens) for Fc1ccc(CCN2CCCN(CCc3ccc(F)cc3)CC2)cc1 [Compound 70]
Response: 1.76

Query: Lab request: please report log10 of IC50 under test system hERG channel (Homo sapiens) for COc1ccc(CCN2CCC(CCc3cccc(OC)c3)CC2)cc1 [Compound 17]
Response: 2.78

Query: Lab request: please report log10 of IC50 under test system hERG channel (Homo sapiens) for Fc1ccc(CCN2CCN(CCc3ccccc3)CC2)cc1 [Compound 64]
Response: 3.36

Query: Lab request: please report log10 of IC50 under test system hERG channel (Homo sapiens) for COc1cccc(CCN2CCC(CCc3ccccc3)CC2)c1 [Compound 2]
Response: 2.69

Query: Lab request: please report log10 of IC50 under test system hERG channel (Homo sapiens) for COc1ccc(CCC2CCN(CCc3ccccc3OC)CC2)c(F)c1 [Compound 37]
Response: 3.46

Query: Lab request: please report log10 of IC50 under test system hERG channel (Homo sapiens) for COc1ccc(CCC2CCN(CCc3cccc(OC)c3)CC2)cc1 [Compound 22]
Response: 2.68

Query: Lab request: please report log10 of IC50 under test system hERG channel (Homo sapiens) for COc1cccc(CCN2CCC(CCc3ccc(OC)cc3F)CC2)c1 [Compound 38]
Response: 2.68

Query: Lab request: please report log10 of IC50 under test system hERG channel (Homo sapiens) for COc1ccccc1CCC1CCN(CCc2ccccc2)CC1 [Compound 13]
Response: 3.22

Query: Lab request: please report log10 of IC50 under test system hERG channel (Homo sapiens) for COc1ccccc1CCC1CCN(CCc2ccccc2OC)CC1 [Compound 12, 1,4-bis(2-methoxyphenethyl)piperidine]
Response: 3.03

Query: Lab request: please report log10 of IC50 under test system hERG channel (Homo sapiens) for Fc1ccc(CCN2CCN(CCc3ccc(F)cc3)CC2)cc1 [Compound 59]
Response: 2.56

Query: Lab request: please report log10 of IC50 under test system hERG channel (Homo sapiens) for Fc1ccc(CCN2CCC(CCc3ccccc3)CC2)cc1 [Compound 11]
Response: 2.55

Query: Lab request: please report log10 of IC50 under test system hERG channel (Homo sapiens) for COc1cccc(CCN2CCN(CCc3ccccc3)CC2)c1 [Compound 61]
Response: 3.63

Query: Lab request: please report log10 of IC50 under test system hERG channel (Homo sapiens) for COc1ccccc1CCN1CCN(CCc2ccccc2OC)CC1 [Compound 55]
Response: 3.01

Query: Lab request: please report log10 of IC50 under test system hERG channel (Homo sapiens) for Clc1ccccc1CCN1CCN(CCc2ccccc2Cl)CC1 [Compound 58]
Response: 3.03

Query: Lab request: please report log10 of IC50 under test system hERG channel (Homo sapiens) for COc1ccc(CCN2CCC(CCc3ccccc3OC)CC2)cc1 [Compound 27]
Response: 2.68

Query: Lab request: please report log10 of IC50 under test system hERG channel (Homo sapiens) for Fc1cc(F)cc(CCC2CCN(CCc3ccccc3)CC2)c1 [Compound 42]
Response: 2.41

Query: Lab request: please report log10 of IC50 under test system hERG channel (Homo sapiens) for COc1ccc(CCC2CCN(CCc3ccccc3Cl)CC2)c(F)c1 [Compound 40]
Response: 3.15

Query: Lab request: please report log10 of IC50 under test system hERG channel (Homo sapiens) for Clc1ccccc1CCN1CCC(CCc2ccccc2)CC1 [Compound 10]
Response: 2.82

Query: Lab request: please report log10 of IC50 under test system hERG channel (Homo sapiens) for COc1ccc(CCN2CCC(CCc3ccccc3)CC2)cc1 [Compound 4]
Response: 2.79

###

target.system: dopamine transporter (DAT) (Rattus norvegicus, UniProt P23977)
Sequence (P23977 whole entry): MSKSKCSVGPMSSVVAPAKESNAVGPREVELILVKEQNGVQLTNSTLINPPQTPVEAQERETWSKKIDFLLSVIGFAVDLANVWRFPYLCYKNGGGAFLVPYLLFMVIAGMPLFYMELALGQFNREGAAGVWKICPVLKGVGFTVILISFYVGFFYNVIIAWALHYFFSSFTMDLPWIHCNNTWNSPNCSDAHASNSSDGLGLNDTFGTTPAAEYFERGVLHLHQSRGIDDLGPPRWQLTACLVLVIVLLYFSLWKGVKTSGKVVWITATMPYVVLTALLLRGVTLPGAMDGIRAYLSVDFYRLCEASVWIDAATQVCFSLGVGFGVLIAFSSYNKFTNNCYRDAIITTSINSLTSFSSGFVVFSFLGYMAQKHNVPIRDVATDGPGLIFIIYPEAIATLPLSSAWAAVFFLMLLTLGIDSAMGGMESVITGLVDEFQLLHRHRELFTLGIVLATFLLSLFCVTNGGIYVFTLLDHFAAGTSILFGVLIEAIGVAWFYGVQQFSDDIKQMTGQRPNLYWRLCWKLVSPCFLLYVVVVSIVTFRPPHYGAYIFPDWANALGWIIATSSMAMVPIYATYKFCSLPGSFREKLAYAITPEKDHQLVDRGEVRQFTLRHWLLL
test.method.notes: [3H]DA uptake assay, striatal synaptosomal preparation
experimental.context: rat striatal synaptosomes; read-out: DAT [3H]DA Uptake Inhibition Mean ± SEM (Ki)
assay.metric: Ki (µM)
Note: unit µM is implicit; provide only the numeric part.

Query: Could you tell me which Ki is on file for `COc1cccc(CCN2CCN(CCc3ccccc3)CC2)c1` ?
Response: 17.2

Query: Could you tell me which Ki is on file for `Fc1ccc(CCN2CCN(CCc3ccccc3)CC2)cc1` ?
Response: 8.04

Query: Could you tell me which Ki is on file for `COc1cccc(CCN2CCC(CCc3cc(F)cc(F)c3)CC2)c1` ?
Response: 1.91

Query: Could you tell me which Ki is on file for `Clc1ccccc1CCN1CCN(CCc2ccccc2Cl)CC1` ?
Response: 6.31

Query: Could you tell me which Ki is on file for `COc1ccc(CCC2CCN(CCc3ccccc3Cl)CC2)cc1` ?
Response: 5.16

Query: Could you tell me which Ki is on file for `COc1ccccc1CCN1CCN(CCc2ccccc2)CC1` ?
Response: 12.8

Query: Could you tell me which Ki is on file for `COc1ccccc1CCC1CCN(CCc2ccccc2Cl)CC1` ?
Response: 1.25

Query: Could you tell me which Ki is on file for `COc1ccccc1CCC1CCN(CCc2ccccc2)CC1` ?
Response: 3.56

Query: Could you tell me which Ki is on file for `COc1cc(OC)c(OC)cc1CCC1CCN(CCc2ccccc2)CC1` ?
Response: 5.46

Query: Could you tell me which Ki is on file for `COc1ccc(CCN2CCN(CCc3ccccc3)CC2)cc1` ?
Response: 11.6
